# measuredOn: T1, CRBN, Q96SW2
# T1 chain: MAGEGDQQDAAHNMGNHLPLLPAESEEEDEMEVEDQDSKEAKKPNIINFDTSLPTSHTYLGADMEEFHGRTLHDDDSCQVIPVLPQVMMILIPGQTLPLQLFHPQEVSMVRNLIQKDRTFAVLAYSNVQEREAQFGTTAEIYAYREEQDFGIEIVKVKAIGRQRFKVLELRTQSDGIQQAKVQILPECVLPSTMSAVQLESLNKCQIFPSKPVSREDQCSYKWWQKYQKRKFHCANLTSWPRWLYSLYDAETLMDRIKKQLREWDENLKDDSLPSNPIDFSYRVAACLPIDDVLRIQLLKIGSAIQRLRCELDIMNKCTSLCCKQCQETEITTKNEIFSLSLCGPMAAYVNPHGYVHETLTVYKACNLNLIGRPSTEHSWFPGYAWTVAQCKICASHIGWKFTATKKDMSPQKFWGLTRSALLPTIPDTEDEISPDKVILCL
# measurementProtocol: log2 fold change of degron read counts, EGFP-low vs EGFP+ sorted cells (limma voom), compound-induced degradation; higher = more compound-induced degradation of the degron-EGFP fusion; degrons are variants of IKZF1/3 zinc finger 2; compound dose not given here;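 note: pooled lentiviral library of zinc finger degron-EGFP fusions in mCherry-positive Jurkat cells, FACS-sorted after compound exposure, with degron abundance counted by next-generation sequencing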
# protocolConditions: Jurkat; 18 h; compound: thalidomide
Over roughly 8,300 sequences, “log2 fold change of degron read counts, EGFP-low vs EGFP+ sorted cells (limma voom), compound-induced degradation” has its median near -1.1; the highest 2% begin near 3.2. The list comes from a sample in which the highest values are over-represented; it also holds close analogues and randomly drawn sequences.
valueKind: log2 fold change of degron read counts

[
  {
    "residueSequence": "FYCNVCGAIFTQKGNLLRHIKL [46F_47Y_49N_50V_52G_53A_54I_55F_67L_, Q9UKT9]",
    "obsValue": -1.44
  },
  {
    "residueSequence": "FGCPVCGAIFTQKGNLLRHIKL [46F_47G_49P_50V_52G_53A_54I_55F_67L_, Q9UKT9]",
    "obsValue": 0.899
  },
  {
    "residueSequence": "FVCPVCGAIFTQKGNLLRHIKL [46F_47V_49P_50V_52G_53A_54I_55F_67L_, Q9UKT9]",
    "obsValue": 1.3
  },
  {
    "residueSequence": "FICNVCGALFTQKGNLLRHIKL [46F_47I_49N_50V_52G_53A_54L_55F_67L_, Q9UKT9]",
    "obsValue": -0.727
  },
  {
    "residueSequence": "FVCPICGAVFTQKGNLLRHIKL [46F_47V_49P_50I_52G_53A_54V_55F_67L_, Q9UKT9]",
    "obsValue": 2.17
  },
  {
    "residueSequence": "FSCPICGAVFTQKGNLLRHIKL [46F_47S_49P_50I_52G_53A_54V_55F_67L_, Q9UKT9]",
    "obsValue": 1.48
  },
  {
    "residueSequence": "FSCPQCGAAFTQKGNLLRHIKL [46F_47S_49P_50Q_52G_53A_54A_55F_67L_, Q9UKT9]",
    "obsValue": -0.879
  },
  {
    "residueSequence": "FECSVCGHHFTQKGNLLRHIKL [46F_47E_49S_50V_52G_53H_54H_55F_67L_, Q9UKT9]",
    "obsValue": -3.11
  },
  {
    "residueSequence": "FRCNVCGAIFTQKGNLLRHIKL [46F_47R_49N_50V_52G_53A_54I_55F_67L_, Q9UKT9]",
    "obsValue": -0.595
  },
  {
    "residueSequence": "FWCPICGHMFTQKGNLLRHIKL [46F_47W_49P_50I_52G_53H_54M_55F_67L_, Q9UKT9]",
    "obsValue": -0.274
  },
  {
    "residueSequence": "FECPICGAVFTQKGNLLRHIKL [46F_47E_49P_50I_52G_53A_54V_55F_67L_, Q9UKT9]",
    "obsValue": 3.33
  },
  {
    "residueSequence": "FYCEICGRYFTQKGNLLRHIKL [46F_47Y_49E_50I_52G_53R_54Y_55F_67L_, Q9UKT9]",
    "obsValue": -1.2
  },
  {
    "residueSequence": "FCCDICGAIFTQKGNLLRHIKL [46F_47C_49D_50I_52G_53A_54I_55F_67L_, Q9UKT9]",
    "obsValue": 0.132
  },
  {
    "residueSequence": "FKCDICGAIFTQKGNLLRHIKL [46F_47K_49D_50I_52G_53A_54I_55F_67L_, Q9UKT9]",
    "obsValue": -2.01
  },
  {
    "residueSequence": "FRCPVCGAIFTQKGNLLRHIKL [46F_47R_49P_50V_52G_53A_54I_55F_67L_, Q9UKT9]",
    "obsValue": 0.832
  }
]
